# Test system: MCF10A
# assay_text: one-nucleolus phenotype percent effect (relative to siNT 0% and siNOL11 100%); higher = more cells with one nucleolus (ribosome biogenesis inhibition)
# study_conditions: 20 nM; 72 h

entry_sequence	subject_of_test	one-nucleolus phenotype percent effect [%]
GUGAAAUGUUUAGGACCACUAG [hsa-miR-203a]	MCF10A	10.2
UGCACAUGGCAACCUAGCUCCCA [hsa-miR-5589-3p]	MCF10A	6.29
UGGGGGAGGAAGGACAGGCCAU [hsa-miR-7111-5p]	MCF10A	36.7
UAAUGCAUUAAAUUAUUGAAGG [hsa-miR-5700]	MCF10A	-23.8
AUAUGGGUUUACUAGUUGGU [hsa-miR-3115]	MCF10A	27.9
CAGGGAGGUGAAUGUGAU [hsa-miR-1321]	MCF10A	19.8
AUGAAGCCUUCUCUGCCUUACG [hsa-miR-7843-3p]	MCF10A	15.8
UAUGUAGUAGUCAAAGGCAUUU [hsa-miR-7852-3p]	MCF10A	-3.81
GUGCGGAACGCUGGCCGGGGCG [hsa-miR-6850-5p]	MCF10A	5.11
GCCCGCGUGUGGAGCCAGGUGU [hsa-miR-1471]	MCF10A	-18.2
UCCUCUUCUCCCUCCUCCCAG [hsa-miR-877-3p]	MCF10A	6.33
CAGGCACGGGAGCUCAGGUGAG [hsa-miR-3622a-5p]	MCF10A	42.3
GGGAGCCAGGAAGUAUUGAUGU [hsa-miR-505-5p]	MCF10A	10.3
ACUGGACUUGGAGUCAGGA [hsa-miR-378e]	MCF10A	11.5
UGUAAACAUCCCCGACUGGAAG [hsa-miR-30d-5p]	MCF10A	0.554

* * *

# Test system: MCF10A
# assay_text: one-nucleolus phenotype percent effect (relative to siNT 0% and siNOL11 100%); higher = more cells with one nucleolus (ribosome biogenesis inhibition)
# study_conditions: 20 nM; 72 h
Short version: one-nucleolus phenotype percent effect at least 10% is yes, less is no.

entry_sequence	discrete_label
CAUCUGGCAUCCGUCACACAGA [hsa-miR-3126-3p]	yes
GCUGGUUUCAUAUGGUGGUUUAGA [hsa-miR-29b-1-5p]	no
CUGUGGGCUCAGCUCUGGG [hsa-miR-4265]	yes
AAAUCUCUGCAGGCAAAUGUGA [hsa-miR-216b]	no
CGGGACUGUAGAGGGCAUGAGC [hsa-miR-8052]	no
UCUACAAAGGAAAGCGCUUUCU [hsa-miR-1283]	no
UACUUGGAAAGGCAUCAGUUG [hsa-miR-890]	yes
UAUCGUAUCGUAUUGUAUUGU [hsa-miR-5686]	no
CAAAACUGGCAAUUACUUUUGC [hsa-miR-548a-3p]	no
UGCAUCAGGCCAGAAGACAUGAG [hsa-miR-4711-5p]	yes
AGAGGCUUUGUGCGGAUACGGGG [hsa-miR-3188]	yes

* * *

Each record here notes measured 5+ nucleoli phenotype percent effect.
# Test system: MCF10A
# assay_text: 5+ nucleoli phenotype percent effect (relative to siNT 0% and siKIF11 100%); higher = more cells with five or more nucleoli
# study_conditions: 20 nM; 72 h
measured_metric: 5+ nucleoli phenotype percent effect (%)

entry_sequence	observed_measurement
GGGCUCACAUCACCCCAU [hsa-miR-4284]	8.32
UAGACGUGGUGAAGGAUUGAGUG [hsa-miR-6863]	-16.5
AGCUCGGUCUGAGGCCCCUCAGU [hsa-miR-423-3p]	-11.8
AAGACGGGAGGAAAGAAGGGAG [hsa-miR-483-5p]	-31.8
UAUAUAUACAGCCAUGCACUC [hsa-miR-5011-5p]	39.8
AUUGUCCCUCUCCCUUCCCAG [hsa-miR-4646-3p]	-1.47
GUGAGGACUCGGGAGGUGG [hsa-miR-1224-5p]	-12.6
CCCUGGGGUUCUGAGGACAUG [hsa-miR-6852-5p]	29
CAUCUUACUGGGCAGCAUUGGA [hsa-miR-200b-5p]	0.989
CUAGACUGAAGCUCCUUGAGG [hsa-miR-151a-3p]	-6.07
CUGAAGCUCAGAGGGCUCUGAU [hsa-miR-127-5p]	-40.5
AAUUGCACUUUAGCAAUGGUGA [hsa-miR-367-3p]	18
AAGCAGCUGCCUCUGAGGC [hsa-miR-646]	-42.6
AAGGGAGGAGGAGCGGAGGGGCCCU [hsa-miR-4739]	4.78
UGAUUGUAGCCUUUUGGAGUAGA [hsa-miR-508-3p]	-32
ACCCUCGUCAGGUCCCCGGGG [hsa-miR-4655-3p]	6.66
CCAGAGCAGCCUGCGGUAACAGU [hsa-miR-6501-3p]	-17.2
AAGUUGGCUGCAGUUAAGGUGG [hsa-miR-4715-5p]	-13.4

* * *

Each record here notes measured one-nucleolus phenotype percent effect.
# Tested on: MCF10A
# assay_text: one-nucleolus phenotype percent effect (relative to siNT 0% and siNOL11 100%); higher = more cells with one nucleolus (ribosome biogenesis inhibition)
# study_conditions: 20 nM; 72 h

entry_sequence	one-nucleolus phenotype percent effect / %
UGACCGAUUUCUCCUGGUGUUC [hsa-miR-29c-5p]	21.1
CAGCAGUGCGCAGGGCUG [hsa-miR-4519]	8.95
UGGCAGGGAGGCUGGGAGGGG [hsa-miR-1207-5p]	24.5
UCCCUGAGACCCUUUAACCUGUGA [hsa-miR-125a-5p]	-18.8
UGUUCAUGUAGAUGUUUAAGC [hsa-miR-1206]	-22.5
CAGGCAGUGACUGUUCAGACGUC [hsa-miR-2682-5p]	51.4
AGAGGUAGGUGUGGAAGAA [hsa-miR-4458]	-20.7
AAUCAUGUGCAGUGCCAAUAUG [hsa-miR-96-3p]	1.6
CACUGGCUCCUUUCUGGGUAGA [hsa-miR-892b]	27.6

* * *

# Test system: MCF10A
# assay_text: one-nucleolus phenotype percent effect (relative to siNT 0% and siNOL11 100%); higher = more cells with one nucleolus (ribosome biogenesis inhibition)
# study_conditions: 20 nM; 72 h
Each record here notes measured one-nucleolus phenotype percent effect.

entry_sequence	one-nucleolus phenotype percent effect
GGCUACAACACAGGACCCGGGC [hsa-miR-187-5p]	-18.2%
AACCCGUAGAUCCGAUCUUGUG [hsa-miR-99a-5p]	7.7%
UAGAGUCUGGCUGAUAUGGUUU [hsa-miR-5007-5p]	14%
AGCCCCUGCCCACCGCACACUG [hsa-miR-210-5p]	-21%
AACUCCAAACACUCAAAACUCA [hsa-miR-3145-5p]	-24.6%
UGUAGUUGUAUUGUAUUGCCAC [hsa-miR-4703-3p]	6.74%
AAUCCUUUGUCCCUGGGUGAGA [hsa-miR-501-5p]	22.1%
UGAAGGUCUACUGUGUGCCAGG [hsa-miR-493-3p]	73%
UAACAGUCUCCAGUCACGGCC [hsa-miR-212-3p]	-19.5%
AAACAUUCGCGGUGCACUUCUU [hsa-miR-543]	-1.05%
AACAACAAAAUCACUAGUCUUCCA [hsa-miR-3529-3p]	14.9%
AAAAACCACAAUUACUUUU [hsa-miR-548ap-3p]	16.7%
AGGCACCAGCCAGGCAUUGCUCAGC [hsa-miR-593-5p]	12.3%
UUCCGCCAGUCGGUGGCCGG [hsa-miR-6084]	-5.3%
CCCAGUGUUUAGACUAUCUGUUC [hsa-miR-199b-5p]	-14.4%

* * *

Each record here notes measured 5+ nucleoli phenotype percent effect.
# Test system: MCF10A
# assay_text: 5+ nucleoli phenotype percent effect (relative to siNT 0% and siKIF11 100%); higher = more cells with five or more nucleoli
# study_conditions: 20 nM; 72 h

entry_sequence	5+ nucleoli phenotype percent effect
AAAGGUGCUCAAAUUAGACAU [hsa-miR-4735-3p]	-26.8%
UGCAUCAGGCCAGAAGACAUGAG [hsa-miR-4711-5p]	-36.8%
UCUGGGAGGUUGUAGCAGUGGAA [hsa-miR-3192]	-19.2%
UAGUGCAAUAUUGCUUAUAGGGU [hsa-miR-454-3p]	54.6%

* * *

# Tested on: MCF10A
# assay_text: percent viability (nuclei count relative to siNT); higher = more viable cells
# study_conditions: 20 nM; 72 h

entry_sequence	percent viability [%]
AGAAGAUUGCAGAGUAAGUUCC [hsa-miR-4699-5p]	48.2
UGAAUGGUAAAGCGAUGUCACA [hsa-miR-4790-3p]	32.2
UGCCUAGGCUGAGACUGCAGUG [hsa-miR-3135a]	25.7
CCAGGCUCUGCAGUGGGA [hsa-miR-3155b]	65.5
UUUCCUCAUAUUCAUUCAGGA [hsa-miR-670-3p]	46.6
CUAGGAGGCCUUGGCC [hsa-miR-4266]	52.6
